Here the recorded EC50 is given for each entry.
SUBJECT_OF_TEST: Metabotropic glutamate receptor 5 (Homo sapiens)
Sequence (P41594 whole entry): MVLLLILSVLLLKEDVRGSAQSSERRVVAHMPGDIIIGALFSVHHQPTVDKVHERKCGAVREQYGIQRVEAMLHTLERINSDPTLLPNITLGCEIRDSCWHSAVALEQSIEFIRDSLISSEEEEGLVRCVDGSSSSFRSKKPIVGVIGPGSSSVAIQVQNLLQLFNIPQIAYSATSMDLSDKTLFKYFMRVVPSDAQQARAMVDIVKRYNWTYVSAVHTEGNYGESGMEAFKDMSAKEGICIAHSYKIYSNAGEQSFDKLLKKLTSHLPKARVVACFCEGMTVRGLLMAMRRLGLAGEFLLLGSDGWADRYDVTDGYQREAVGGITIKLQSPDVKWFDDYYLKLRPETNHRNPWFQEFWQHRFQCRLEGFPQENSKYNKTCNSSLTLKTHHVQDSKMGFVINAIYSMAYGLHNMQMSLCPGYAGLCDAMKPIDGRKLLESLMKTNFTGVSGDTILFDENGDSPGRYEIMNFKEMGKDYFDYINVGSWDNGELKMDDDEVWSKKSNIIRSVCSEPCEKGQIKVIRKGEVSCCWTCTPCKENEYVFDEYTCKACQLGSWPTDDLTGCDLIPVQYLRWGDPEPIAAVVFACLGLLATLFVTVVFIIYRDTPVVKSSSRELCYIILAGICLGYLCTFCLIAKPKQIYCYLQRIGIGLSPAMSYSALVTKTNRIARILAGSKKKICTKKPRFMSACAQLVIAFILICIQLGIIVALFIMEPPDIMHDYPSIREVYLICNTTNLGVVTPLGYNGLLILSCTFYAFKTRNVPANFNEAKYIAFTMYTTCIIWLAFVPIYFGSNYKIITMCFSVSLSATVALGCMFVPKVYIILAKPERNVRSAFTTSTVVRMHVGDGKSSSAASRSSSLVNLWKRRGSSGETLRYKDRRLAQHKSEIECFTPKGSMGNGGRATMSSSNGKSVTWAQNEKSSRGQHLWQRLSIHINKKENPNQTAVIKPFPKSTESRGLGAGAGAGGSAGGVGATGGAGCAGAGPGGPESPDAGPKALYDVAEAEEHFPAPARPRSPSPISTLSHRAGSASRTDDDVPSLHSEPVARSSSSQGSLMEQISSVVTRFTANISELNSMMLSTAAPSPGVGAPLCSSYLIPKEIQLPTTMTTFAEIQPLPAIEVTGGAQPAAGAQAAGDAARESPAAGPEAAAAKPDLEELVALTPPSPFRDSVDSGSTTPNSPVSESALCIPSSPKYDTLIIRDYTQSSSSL
ASSAY_EXPLANATION: Agonist activity at mGlu5 receptor (unknown origin) expressed in human Flp-In-T-REx-293 cells by Ca2+ mobilization assay

Use these answered entries as a reference point.
{"columns": ["CPD_SMILES", "RESULT"],
 "data": [
  ["Fc1ccc(N2CCN(Cc3cc(C(F)(F)F)cn4c(CC5CC5)nnc34)CC2)c(F)c1", "> 10 µM"],
  ["Fc1ccccc1N1CCN(Cc2ccn3c(CC4CC4)nnc3c2C(F)(F)F)CC1", "> 10 µM"]
]}

Item Fc1cc(Cl)ccc1N1CCN(Cc2ccn3c(CC4CC4)nnc3c2C(F)(F)F)CC1 has what recorded EC50? > 10 µM

Item O=C(c1cnc2c(cnn2CC2CC2)c1C(F)(F)F)N1CCN(c2ccc(F)cc2F)CC1 has what recorded EC50? > 1 µM

Item Fc1ccc(N2CCN(Cc3ccn4c(CC5CC5)nnc4c3C(F)(F)F)CC2)c(Cl)c1 has what recorded EC50? > 10 µM

###

ASSAY_EXPLANATION: in vivo
EXPERIMENTAL_CONTEXT: cynomolgus monkey, whole blood and plasma
MEASURE: blood plasma ratio at 11 min
Lab note: record the figure alone, no unit after it.

Item FC(F)(F)c1c(CN2CCC(c3ccc([18F])cc3Cl)CC2)ccn2c(CC3CC3)nnc12 has what recorded blood plasma ratio at 11 min? 1.12

###

Here the recorded EC50 is given for each entry.
SUBJECT_OF_TEST: Metabotropic glutamate receptor 6 (Homo sapiens)
Sequence (O15303 whole entry): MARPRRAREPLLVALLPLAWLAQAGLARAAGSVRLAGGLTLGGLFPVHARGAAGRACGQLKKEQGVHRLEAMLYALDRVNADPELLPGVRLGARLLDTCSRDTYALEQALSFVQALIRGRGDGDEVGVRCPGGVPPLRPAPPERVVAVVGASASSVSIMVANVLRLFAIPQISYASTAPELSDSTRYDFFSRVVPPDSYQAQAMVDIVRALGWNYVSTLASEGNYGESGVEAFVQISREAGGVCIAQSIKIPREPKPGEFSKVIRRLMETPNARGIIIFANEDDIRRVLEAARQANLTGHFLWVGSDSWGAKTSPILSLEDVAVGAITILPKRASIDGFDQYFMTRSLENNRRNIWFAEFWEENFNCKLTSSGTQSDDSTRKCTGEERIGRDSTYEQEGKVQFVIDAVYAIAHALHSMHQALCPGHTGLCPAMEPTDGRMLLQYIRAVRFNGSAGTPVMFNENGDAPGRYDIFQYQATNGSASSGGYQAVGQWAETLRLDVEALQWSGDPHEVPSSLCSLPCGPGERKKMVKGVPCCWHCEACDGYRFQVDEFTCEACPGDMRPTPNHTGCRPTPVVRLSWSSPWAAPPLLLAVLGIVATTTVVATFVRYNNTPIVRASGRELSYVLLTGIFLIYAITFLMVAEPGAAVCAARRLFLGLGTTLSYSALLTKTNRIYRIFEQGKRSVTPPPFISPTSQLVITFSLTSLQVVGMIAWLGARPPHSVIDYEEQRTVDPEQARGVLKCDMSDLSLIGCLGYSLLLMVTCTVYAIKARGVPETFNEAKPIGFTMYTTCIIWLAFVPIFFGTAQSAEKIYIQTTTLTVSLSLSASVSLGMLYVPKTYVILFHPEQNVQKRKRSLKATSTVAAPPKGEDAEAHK
ASSAY_EXPLANATION: Agonist activity at mGlu6 receptor (unknown origin) expressed in human Flp-In-T-REx-293 cells by luciferase based GloSensor cAMP Assay

{"columns": ["CPD_SMILES", "RESULT"],
 "data": [
  ["Fc1cc(Cl)ccc1N1CCN(Cc2ccn3c(CC4CC4)nnc3c2C(F)(F)F)CC1", "> 10 µM"]
]}

Item Fc1ccc(N2CCN(Cc3ccn4c(CC5CC5)nnc4c3C(F)(F)F)CC2)c(Cl)c1 has what recorded EC50? > 10 µM

Item Fc1ccc(N2CCN(Cc3cc(C(F)(F)F)cn4c(CC5CC5)nnc34)CC2)c(F)c1 has what recorded EC50? > 10 µM

Item O=C(c1cnc2c(cnn2CC2CC2)c1C(F)(F)F)N1CCN(c2ccc(F)cc2F)CC1 has what recorded EC50? > 1 µM

Item Fc1ccccc1N1CCN(Cc2ccn3c(CC4CC4)nnc3c2C(F)(F)F)CC1 has what recorded EC50? > 10 µM

###

Here the recorded EC50 is given for each entry.
SUBJECT_OF_TEST: Metabotropic glutamate receptor 1 (Homo sapiens, UniProt Q13255)
Sequence (Q13255 whole entry): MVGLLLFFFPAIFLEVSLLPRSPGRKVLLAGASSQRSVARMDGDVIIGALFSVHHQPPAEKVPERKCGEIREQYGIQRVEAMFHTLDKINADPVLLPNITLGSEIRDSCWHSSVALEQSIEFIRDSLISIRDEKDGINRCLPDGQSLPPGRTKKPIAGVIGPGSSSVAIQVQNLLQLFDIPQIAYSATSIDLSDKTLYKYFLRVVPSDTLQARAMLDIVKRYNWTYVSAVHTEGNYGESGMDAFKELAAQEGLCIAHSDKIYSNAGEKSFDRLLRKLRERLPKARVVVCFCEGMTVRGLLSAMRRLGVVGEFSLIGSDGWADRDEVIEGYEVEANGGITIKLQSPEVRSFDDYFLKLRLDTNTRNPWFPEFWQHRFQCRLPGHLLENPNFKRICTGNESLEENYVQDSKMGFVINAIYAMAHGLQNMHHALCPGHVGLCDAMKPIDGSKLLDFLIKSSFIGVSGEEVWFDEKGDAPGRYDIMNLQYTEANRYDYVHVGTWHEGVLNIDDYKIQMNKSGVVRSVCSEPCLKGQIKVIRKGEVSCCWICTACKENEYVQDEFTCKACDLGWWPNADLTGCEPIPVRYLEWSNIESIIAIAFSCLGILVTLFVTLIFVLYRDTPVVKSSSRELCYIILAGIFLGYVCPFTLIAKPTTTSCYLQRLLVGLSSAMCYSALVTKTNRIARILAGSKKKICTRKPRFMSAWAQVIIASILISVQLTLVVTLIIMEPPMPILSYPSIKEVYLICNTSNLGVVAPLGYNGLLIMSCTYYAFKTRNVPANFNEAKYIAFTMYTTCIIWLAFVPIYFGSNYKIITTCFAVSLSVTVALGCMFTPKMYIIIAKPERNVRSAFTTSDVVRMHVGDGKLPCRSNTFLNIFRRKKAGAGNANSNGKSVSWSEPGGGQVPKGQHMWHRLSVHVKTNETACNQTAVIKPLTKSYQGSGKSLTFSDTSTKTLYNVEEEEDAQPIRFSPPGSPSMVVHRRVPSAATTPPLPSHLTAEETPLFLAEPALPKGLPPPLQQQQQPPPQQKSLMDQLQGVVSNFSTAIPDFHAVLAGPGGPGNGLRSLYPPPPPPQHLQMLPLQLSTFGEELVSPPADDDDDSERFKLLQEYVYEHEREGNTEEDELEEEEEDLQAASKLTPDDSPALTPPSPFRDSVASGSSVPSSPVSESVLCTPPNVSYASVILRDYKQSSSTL
ASSAY_EXPLANATION: Agonist activity at mGlu1 receptor (unknown origin) expressed in human Flp-In-T-REx-293 cells by Ca2+ mobilization assay

{"columns": ["CPD_SMILES", "SUBJECT_OF_TEST", "RESULT"],
 "data": [
  ["Fc1ccc(N2CCN(Cc3cc(C(F)(F)F)cn4c(CC5CC5)nnc34)CC2)c(F)c1", "Metabotropic glutamate receptor 1 (Homo sapiens, UniProt Q13255)", "> 10 µM"],
  ["O=C(c1cnc2c(cnn2CC2CC2)c1C(F)(F)F)N1CCN(c2ccc(F)cc2F)CC1", "Metabotropic glutamate receptor 1 (Homo sapiens, UniProt Q13255)", "> 1 µM"]
]}

Item Fc1ccccc1N1CCN(Cc2ccn3c(CC4CC4)nnc3c2C(F)(F)F)CC1 has what recorded EC50? > 10 µM

Item Fc1cc(Cl)ccc1N1CCN(Cc2ccn3c(CC4CC4)nnc3c2C(F)(F)F)CC1 has what recorded EC50? > 10 µM

Item Fc1ccc(N2CCN(Cc3ccn4c(CC5CC5)nnc4c3C(F)(F)F)CC2)c(Cl)c1 has what recorded EC50? > 10 µM
